Recorded values, source patent US20190077863A1.

List of kon values.
Biological target: T1, Human VE-PTP (HPTP-β) containing first eight FN3 repeats with C-terminal His6 tag (Human ½ VE-PTP ECD) (human, UniProt P23467 23-820)
T1 construct: Produced in HEK293 cells and purified by the His tag; it was not cut off; also called Human Beta ½ ECD
T1 sequence: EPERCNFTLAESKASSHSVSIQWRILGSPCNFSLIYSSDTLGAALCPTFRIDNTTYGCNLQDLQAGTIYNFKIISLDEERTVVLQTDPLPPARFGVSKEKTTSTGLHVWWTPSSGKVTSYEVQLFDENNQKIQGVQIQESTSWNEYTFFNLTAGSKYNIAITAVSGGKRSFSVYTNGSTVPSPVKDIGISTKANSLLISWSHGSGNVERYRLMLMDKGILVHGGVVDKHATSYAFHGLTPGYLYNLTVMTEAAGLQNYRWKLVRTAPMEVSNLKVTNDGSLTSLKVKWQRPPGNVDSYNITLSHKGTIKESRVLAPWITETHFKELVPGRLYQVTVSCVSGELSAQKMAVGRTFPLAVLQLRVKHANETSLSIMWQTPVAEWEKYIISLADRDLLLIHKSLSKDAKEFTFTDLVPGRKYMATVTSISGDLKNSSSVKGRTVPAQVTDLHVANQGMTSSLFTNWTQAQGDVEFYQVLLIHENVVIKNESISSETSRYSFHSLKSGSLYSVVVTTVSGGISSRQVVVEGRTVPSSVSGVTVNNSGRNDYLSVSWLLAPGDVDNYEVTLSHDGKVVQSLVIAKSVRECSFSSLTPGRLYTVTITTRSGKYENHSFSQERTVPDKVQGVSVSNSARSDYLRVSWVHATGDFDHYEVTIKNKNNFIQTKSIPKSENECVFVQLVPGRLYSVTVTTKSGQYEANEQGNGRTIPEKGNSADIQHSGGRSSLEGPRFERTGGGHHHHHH
Assay: SPR (Biacore 3000), antibody captured on anti-human IgG, antigen as analyte 100 nM (single concentration)
attribute.measured: kon (M⁻¹ s⁻¹)

* humanized R15E6 variant HC1LC2 (antibody, human IgG4 S228P, kappa, V domains shown, Human IgG4 (S228P) / kappa, expressed in CHO cells; Signal peptides left out by range; also called VH1-VL2) VH: EVQLVESGGGLVQPGGSLKLSCAASGFTFNANAMNWVRQASGKGLEWVGRIRTKSNNYATYYAGSVKDRFTISRDDSKNTAYLQMNSLKTEDTAAYYCVRDYYGSSAWITYWGQGTLVTVSS VL: DIVMTQSPDSLAVSLGERATINCKASQHVGTAVAWYQQKPGQPPKLLIYWASTRHTGVPDRFSGSGSGTDFTLTISSLQAEDVAVYYCQQYSSYPFTFGQGTKLEIKR | 251000
* humanized R15E6 variant HC3LC4 (antibody, human IgG4 S228P, kappa, V domains shown, Human IgG4 (S228P) / kappa, expressed in CHO cells; Signal peptides left out by range; also called VH3-VL4) VH: EVQLVESGGGLVQPGRSLRLSCTASGFTFNANAMNWVRQAPGKGLEWVGRIRTKSNNYATYYAGSVKDRFTISRDDSKNIAYLQMNSLKTEDTAVYYCVRDYYGSSAWITYWGQGTLVTVSS VL: DIVMTQSPDSLAVSLGERATINCKASQHVGTAVAWYQQKPEQPPKLLIYWASTRHTGVPDRFSGSGSGTDFTLTISSLQAEDVAVYYCQQYSSYPFTFGGGTKVEIKR | 139000
* mouse/human chimeric antibody HC0LC0 (antibody, human IgG4 S228P, kappa, V domains shown, Murine variable domains of R15E6 on human IgG4 (S228P) and kappa constant domains, expressed in CHO cells; also called VH0-VL0) VH: EVQLVETGGGLVQPKGSMKLSCAASGFTFNANAMNWIRQAPGKGLEWVARIRTKSNNYATYYAGSVKDRFTISRDDAQNMLYLQMNDLKTEDTAMYYCVRDYYGSSAWITYWGQGTLVTVSA VL: DIVMTQSHKFMSTSVGDRVSITCKASQHVGTAVAWYQQKPDQSPKQLIYWASTRHTGVPDRFTGSGSGTDFTLTISNVQSEDLADYFCQQYSSYPFTFGSGTKLEIKR | 67100
* humanized R15E6 variant HC2LC3 (antibody, human IgG4 S228P, kappa, V domains shown, Human IgG4 (S228P) / kappa, expressed in CHO cells; Signal peptides left out by range; also called VH2-VL3) VH: EVQLVESGGGLVQPGGSLRLSCAASGFTFNANAMNWVRQAPGKGLEWVGRIRTKSNNYATYYAGSVKDRFTISRDDSKNSLYLQMNSLKTEDTAVYYCVRDYYGSSAWITYWGQGTLVTVSS VL: DIQMTQSPFSLSASVGDRVTITCKASQHVGTAVAWYQQKPGKAPKLLIYWASTRHTGVPSRFSGSGSGTDFTLTISSLQPEDFATYFCQQYSSYPFTFGGGTKLEIKR | 222000
